Entry source: patent US20170165339A1

# peptide exchange yield values compiled below
# Assay System: HLA-A*24 (human)
# Assay Procedure: UV peptide-exchange ELISA, yield grade
Assay Metric: peptide exchange yield

1) LFIPSSKLLFL [… (SEQ ID NO: 171)] = 50 to 75%
2) DYTTWTALL [… (SEQ ID NO: 165)] = > 75%
3) IYLVSIPEL [… (SEQ ID NO: 161)] = > 75%
4) YYGPSLFLL [… (SEQ ID NO: 200)] = 50 to 75%
5) QYLQDAYSF [… (SEQ ID NO: 272)] = > 75%
6) IFPQFLYQF [… (SEQ ID NO: 186)] = > 75%
7) VYTLDIPVL [… (SEQ ID NO: 160)] = > 75%
8) TYKDEGNDYF [… (SEQ ID NO: 209)] = 50 to 75%
